System: 186277-243-T-J2-PDC spheroids with HUVEC/MSC, viability
Assay: Anticancer human tumor 186277-243-T-J2-PDC patient-derived colon adenocarcinoma cell line growth inhibition [CLK]
Settings: second compound 0.1 µM; first compound 0.0316 µM; stronger effect = lower value
Under this convention, Yes denotes viability, T/C strictly below 70% and No denotes viability, T/C at or above 70%.

>>> classification("C=CC(=O)N1CCN(c2nc(=O)n(-c3c(C)ccnc3C(C)C)c3nc(-c4c(O)cccc4F)c(F)cc23)C(C)C1 (stereo not given) + CNC(=O)c1ccc(Nc2nc(OC3CCCC3)c3c(-c4ccc5nc(C)oc5c4)c[nH]c3n2)c(OC)c1")
"No"
>>> classification("Nc1ccccc1NC(=O)c1ccc(CNC(=O)OCc2cccnc2)cc1 + CN1CCN(c2cc(C(=O)Nc3cc4cc(-c5cnn(C)c5)ccc4cn3)ccn2)CC1")
"No"

Input line: A record lists COc1c(OCCCN2CCOCC2)ccc2c3n(c(=NC(=O)c4cnc(N)nc4)nc12)CCN3 + CNC(=O)c1ccc(Nc2nc(OC3CCCC3)c3c(-c4ccc5nc(C)oc5c4)c[nH]c3n2)c(OC)c1 . Is its viability, T/C below 70%?
Output line: Yes

Input line: # iterate: C#Cc1c(F)ccc2cc(O)cc(-c3ncc4c(N5CC6CCC(C5)N6)nc(OCC56CCCN5CC(F)C6)nc4c3F)c12 (stereo not given) + CNC(=O)c1ccc(Nc2nc(OC3CCCC3)c3c(-c4ccc5nc(C)oc5c4)c[nH]c3n2)c(OC)c1
Output line: Yes

====

System: 186277-243-T-J2-PDC spheroids with HUVEC/MSC, viability
Test: Anticancer human tumor 186277-243-T-J2-PDC cell line growth inhibition [CLK]; active means viability on the fitted dose curve at most 10% of control; inactive means the rest;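 note: compound exposure lasted seven days before readout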
Settings: second compound 1 µM; first compound 0.316 µM
Output constraint: value belongs to active, inactive

>>> classification("CC(=O)O[C@H]1C(=O)[C@@]2(C)[C@H]([C@H](OC(=O)c3ccccc3)[C@]3(O)C[C@H](OC(=O)[C@H](O)[C@@H](NC(=O)c4ccccc4)c4ccccc4)C(C)=C1C3(C)C)[C@]1(OC(C)=O)CO[C@@H]1C[C@@H]2O + CNC(=O)c1ccc(Nc2nc(OC3CCCC3)c3c(-c4ccc5nc(C)oc5c4)c[nH]c3n2)c(OC)c1")
"inactive"

Input line: # fetch the recorded call for CC1COCCN1c1cc(C2(S(C)(=N)=O)CC2)nc(-c2ccnc3[nH]ccc23)n1 (stereo not given) + CN1CCN(c2cc(C(=O)Nc3cc4cc(-c5cnn(C)c5)ccc4cn3)ccn2)CC1 here
Output line: active

Input line: # iterate: COc1c(OCCCN2CCOCC2)ccc2c3n(c(=NC(=O)c4cnc(N)nc4)nc12)CCN3 + CNC(=O)c1ccc(Nc2nc(OC3CCCC3)c3c(-c4ccc5nc(C)oc5c4)c[nH]c3n2)c(OC)c1
Output line: active

Input line: # iterate: COC1C=CCC(C)C(C)S(=O)(=O)NC(=O)c2ccc3c(c2)N(CC2CCC21)CC1(CCCc2cc(Cl)ccc21)CO3 (stereo not given) + CN1CCN(c2cc(C(=O)Nc3cc4cc(-c5cnn(C)c5)ccc4cn3)ccn2)CC1
Output line: active

Input line: # iterate: CCc1c2c(nc3ccc(O)cc13)-c1cc3c(c(=O)n1C2)COC(=O)[C@]3(O)CC + CN1CCN(c2cc(C(=O)Nc3cc4cc(-c5cnn(C)c5)ccc4cn3)ccn2)CC1
Output line: active

====

Tested on: 186277-243-T-J2-PDC spheroids with HUVEC/MSC, viability
Assay: Anticancer human tumor 186277-243-T-J2-PDC cell line growth inhibition [CLK]; active = viability on the fitted dose curve at most 10% of control; inactive = the rest;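 note: compound exposure lasted seven days before readout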
Conditions: second compound 0.1 µM; first compound 0.316 µM
Output constraint: value belongs to active, inactive

>>> classification("COc1c(OCCCN2CCOCC2)ccc2c3n(c(=NC(=O)c4cnc(N)nc4)nc12)CCN3 + CN1CCN(c2cc(C(=O)Nc3cc4cc(-c5cnn(C)c5)ccc4cn3)ccn2)CC1")
"active"

Input line: # fetch the recorded call for Nc1ccn(C2OC(CO)C(O)C2(F)F)c(=O)n1 (stereo unspecified) + CN1CCN(c2cc(C(=O)Nc3cc4cc(-c5cnn(C)c5)ccc4cn3)ccn2)CC1 here
Output line: inactive

Input line: # iterate: CCN1CCN(Cc2ccc(Nc3ncc(F)c(-c4cc(F)c5nc(C)n(C(C)C)c5c4)n3)nc2)CC1 + CN1CCN(c2cc(C(=O)Nc3cc4cc(-c5cnn(C)c5)ccc4cn3)ccn2)CC1
Output line: inactive

Input line: # iterate: CC(Nc1ccc2c(c1)OCCn1cc(N3C(=O)OCC3C(F)F)nc1-2)C(N)=O (stereo unspecified) + CNC(=O)c1ccc(Nc2nc(OC3CCCC3)c3c(-c4ccc5nc(C)oc5c4)c[nH]c3n2)c(OC)c1
Output line: inactive

Input line: # iterate: C=C(F)C(=O)N1CCN(c2nc(OCC3CCCN3C)nc3c2CCN(c2cccc4cccc(Cl)c24)C3)CC1CC#N (stereo unspecified) + CN1CCN(c2cc(C(=O)Nc3cc4cc(-c5cnn(C)c5)ccc4cn3)ccn2)CC1
Output line: inactive

Input line: # iterate: CC1COCCN1c1cc(C2(S(C)(=N)=O)CC2)nc(-c2ccnc3[nH]ccc23)n1 (stereo unspecified) + CN1CCN(c2cc(C(=O)Nc3cc4cc(-c5cnn(C)c5)ccc4cn3)ccn2)CC1
Output line: inactive

====

Assign pIC50 to each entry below.
Test system: 186277-243-T-J2-PDC spheroids with HUVEC/MSC, viability
Assay: Anticancer human tumor 186277-243-T-J2-PDC cell line growth inhibition [CLK];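 note: compound exposure lasted seven days before readout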
Details: curve of first compound; second compound 0.316 µM
pIC50: −log10 of the molar value.

Recorded results for 3 compounds are shown here.
>>> assay_value("CCc1c2c(nc3ccc(O)cc13)-c1cc3c(c(=O)n1C2)COC(=O)[C@]3(O)CC + CNC(=O)c1ccc(Nc2nc(OC3CCCC3)c3c(-c4ccc5nc(C)oc5c4)c[nH]c3n2)c(OC)c1")
7.94
>>> assay_value("CCCS(=O)(=O)Nc1ccc(F)c(C(=O)c2c[nH]c3ncc(-c4ccc(Cl)cc4)cc23)c1F + CN1CCN(c2cc(C(=O)Nc3cc4cc(-c5cnn(C)c5)ccc4cn3)ccn2)CC1")
"> 7.50"
>>> assay_value("C=C(F)C(=O)N1CCN(c2nc(OCC3CCCN3C)nc3c2CCN(c2cccc4cccc(Cl)c24)C3)CC1CC#N (stereo unspecified) + CN1CCN(c2cc(C(=O)Nc3cc4cc(-c5cnn(C)c5)ccc4cn3)ccn2)CC1")
"> 7.50"

Provide pIC50 for all items below, preserving their order.
1. Nc1ccccc1NC(=O)c1ccc(CNC(=O)OCc2cccnc2)cc1 + CN1CCN(c2cc(C(=O)Nc3cc4cc(-c5cnn(C)c5)ccc4cn3)ccn2)CC1
2. C#Cc1c(F)ccc2cc(O)cc(-c3ncc4c(N5CC6CCC(C5)N6)nc(OCC56CCCN5CC(F)C6)nc4c3F)c12 (stereo unspecified) + CN1CCN(c2cc(C(=O)Nc3cc4cc(-c5cnn(C)c5)ccc4cn3)ccn2)CC1
3. COC1C=CCC(C)C(C)S(=O)(=O)NC(=O)c2ccc3c(c2)N(CC2CCC21)CC1(CCCc2cc(Cl)ccc21)CO3 (stereo unspecified) + CN1CCN(c2cc(C(=O)Nc3cc4cc(-c5cnn(C)c5)ccc4cn3)ccn2)CC1
4. Cn1ncnc1[C@H]1c2n[nH]c(=O)c3cc(F)cc(c23)N[C@@H]1c1ccc(F)cc1 + CN1CCN(c2cc(C(=O)Nc3cc4cc(-c5cnn(C)c5)ccc4cn3)ccn2)CC1
5. CCCS(=O)(=O)Nc1ccc(F)c(C(=O)c2c[nH]c3ncc(-c4ccc(Cl)cc4)cc23)c1F + CNC(=O)c1ccc(Nc2nc(OC3CCCC3)c3c(-c4ccc5nc(C)oc5c4)c[nH]c3n2)c(OC)c1
6. CC1COCCN1c1cc(C2(S(C)(=N)=O)CC2)nc(-c2ccnc3[nH]ccc23)n1 (stereo unspecified) + CN1CCN(c2cc(C(=O)Nc3cc4cc(-c5cnn(C)c5)ccc4cn3)ccn2)CC1
7. COc1ccc([C@@H](O)c2cc(-c3ncnc4cc(N5CCOCC5)ccc34)c(F)cc2Cl)nn1 + CNC(=O)c1ccc(Nc2nc(OC3CCCC3)c3c(-c4ccc5nc(C)oc5c4)c[nH]c3n2)c(OC)c1
8. C=C(F)C(=O)N1CCN(c2nc(OCC3CCCN3C)nc3c2CCN(c2cccc4cccc(Cl)c24)C3)CC1CC#N (stereo unspecified) + CNC(=O)c1ccc(Nc2nc(OC3CCCC3)c3c(-c4ccc5nc(C)oc5c4)c[nH]c3n2)c(OC)c1

Output line:
1. > 7.50
2. > 7.50
3. > 7.50
4. > 9.50
5. 5.44
6. > 7.50
7. > 7.50
8. > 7.50

====

System: 186277-243-T-J2-PDC spheroids with HUVEC/MSC, viability
Assay: Anticancer human tumor 186277-243-T-J2-PDC cell line growth inhibition [CLK];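 note: compound exposure lasted seven days before readout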;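 for viability, T/C: 100% = DMSO vehicle control wells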
Conditions: second compound 0.316 µM; first compound 0.0316 µM; stronger effect = lower value
Assign viability, T/C to each entry below.
Give bare numbers, in %.

>>> assay_value("O=c1[nH]cc(F)c(=O)[nH]1 + CN1CCN(c2cc(C(=O)Nc3cc4cc(-c5cnn(C)c5)ccc4cn3)ccn2)CC1")
21.7
>>> assay_value("C=C(F)C(=O)N1CCN(c2nc(OCC3CCCN3C)nc3c2CCN(c2cccc4cccc(Cl)c24)C3)CC1CC#N (stereo unspecified) + CNC(=O)c1ccc(Nc2nc(OC3CCCC3)c3c(-c4ccc5nc(C)oc5c4)c[nH]c3n2)c(OC)c1")
45.1
>>> assay_value("COc1cccc2c1C(=O)c1c(O)c3c(c(O)c1C2=O)CC(O)(C(=O)CO)CC3OC1CC(N)C(O)C(C)O1 (stereo unspecified) + CNC(=O)c1ccc(Nc2nc(OC3CCCC3)c3c(-c4ccc5nc(C)oc5c4)c[nH]c3n2)c(OC)c1")
52.4

Provide viability, T/C for all items below, preserving their order.
1. O=C(c1cc(Cc2n[nH]c(=O)c3ccccc23)ccc1F)N1CCN(C(=O)C2CC2)CC1 + CN1CCN(c2cc(C(=O)Nc3cc4cc(-c5cnn(C)c5)ccc4cn3)ccn2)CC1
2. Cn1ncnc1[C@H]1c2n[nH]c(=O)c3cc(F)cc(c23)N[C@@H]1c1ccc(F)cc1 + CN1CCN(c2cc(C(=O)Nc3cc4cc(-c5cnn(C)c5)ccc4cn3)ccn2)CC1
3. O=C(c1cc(Cc2n[nH]c(=O)c3ccccc23)ccc1F)N1CCN(C(=O)C2CC2)CC1 + CNC(=O)c1ccc(Nc2nc(OC3CCCC3)c3c(-c4ccc5nc(C)oc5c4)c[nH]c3n2)c(OC)c1
4. CC(CO)NC(=O)c1cc(-c2ccc(Cl)cc2)nn(-c2cnn(C)c2)c1=O (stereo unspecified) + CNC(=O)c1ccc(Nc2nc(OC3CCCC3)c3c(-c4ccc5nc(C)oc5c4)c[nH]c3n2)c(OC)c1
5. CC(Nc1ccc2c(c1)OCCn1cc(N3C(=O)OCC3C(F)F)nc1-2)C(N)=O (stereo unspecified) + CNC(=O)c1ccc(Nc2nc(OC3CCCC3)c3c(-c4ccc5nc(C)oc5c4)c[nH]c3n2)c(OC)c1
6. COC1C=CCC(C)C(C)S(=O)(=O)NC(=O)c2ccc3c(c2)N(CC2CCC21)CC1(CCCc2cc(Cl)ccc21)CO3 (stereo unspecified) + CN1CCN(c2cc(C(=O)Nc3cc4cc(-c5cnn(C)c5)ccc4cn3)ccn2)CC1
7. CCN1CCN(Cc2ccc(Nc3ncc(F)c(-c4cc(F)c5nc(C)n(C(C)C)c5c4)n3)nc2)CC1 + CNC(=O)c1ccc(Nc2nc(OC3CCCC3)c3c(-c4ccc5nc(C)oc5c4)c[nH]c3n2)c(OC)c1

Output line:
1: 24.6; 2: 21.9; 3: 55.8; 4: 50; 5: 30.4; 6: 25.6; 7: 71.6

Input line: Find the measured viability, T/C: item C#Cc1c(F)ccc2cc(O)cc(-c3ncc4c(N5CC6CCC(C5)N6)nc(OCC56CCCN5CC(F)C6)nc4c3F)c12 (stereo unspecified) + CNC(=O)c1ccc(Nc2nc(OC3CCCC3)c3c(-c4ccc5nc(C)oc5c4)c[nH]c3n2)c(OC)c1 , target or system 186277-243-T-J2-PDC spheroids with HUVEC/MSC, viability.
Output line: 16.6
